- Test system: OVCAR-3
- assay.name: Inhibition of proliferation of ovarian cancer cell line OVCAR-3 (CellTiter Glo)
- Format: cell-based
- protocol.conditions: read-out: OVCAR-3 IC50
endpoint.label: IC50

Below: 3 molecules and their reported IC50.
Cc1cc(NC(=O)c2ccc(NS(=O)(=O)CCO)cc2N2CCC(=C(F)F)CC2)nc(N2CCC(F)(F)CC2)n1 : < 75 nM
Cc1cc(NC(=O)c2ccc(NS(=O)(=O)CCO)cc2N2CCC(=C(F)F)CC2)cc(N2CCC(F)(F)CC2)c1 : < 50 nM
Cc1cc(NC(=O)c2ccc(NS(=O)(=O)C(C)(C)CO)cc2N2CCC(=C(F)F)CC2)nc(N2CCC(F)(F)CC2)n1 : < 50 nM

Now for another entry.
Requested read-out IC50, target or system OVCAR-3, entry Cc1cc(NC(=O)c2ccc(NS(=O)(=O)CCO)cc2N2CCC(=C(F)F)CC2)nc(N2CCC(F)(F)CC2)c1
< 50 nM

###

- System: HCC1954
- assay.name: Inhibition of proliferation of breast cancer cell line HCC1954 (CellTiter Glo)
- Format: cell-based
- protocol.conditions: HCC1954 cells, 96 hours
pIC50: −log10 of the molar value.
Please go through the items and note down their pIC50.

Need pIC50 for each of these compounds.
1. Cc1cc(NC(=O)c2ccc(NS(=O)(=O)CCO)cc2N2CCC(=C(F)F)CC2)nc(N2CCC(F)(F)CC2)n1 [Compound 33]
2. Cc1cc(NC(=O)c2ccc(NS(=O)(=O)CCO)cc2N2CCC(=C(F)F)CC2)cc(N2CCC(F)(F)CC2)c1 [Compound 56]
3. Cc1cc(NC(=O)c2ccc(NS(=O)(=O)CCO)cc2N2CCC(=C(F)F)CC2)nc(N2CCC(F)(F)CC2)c1 [Compound 48]
4. Cc1cc(NC(=O)c2ccc(NS(=O)(=O)C(C)(C)CO)cc2N2CCC(=C(F)F)CC2)nc(N2CCC(F)(F)CC2)n1 [Compound 60]

["> 7.12", "> 7.12", "> 7.30", "> 7.12"]

###

// values below are IC50; system is KIF18A (Homo sapiens (Human), UniProt Q8NI77)
Sequence (Q8NI77 whole entry): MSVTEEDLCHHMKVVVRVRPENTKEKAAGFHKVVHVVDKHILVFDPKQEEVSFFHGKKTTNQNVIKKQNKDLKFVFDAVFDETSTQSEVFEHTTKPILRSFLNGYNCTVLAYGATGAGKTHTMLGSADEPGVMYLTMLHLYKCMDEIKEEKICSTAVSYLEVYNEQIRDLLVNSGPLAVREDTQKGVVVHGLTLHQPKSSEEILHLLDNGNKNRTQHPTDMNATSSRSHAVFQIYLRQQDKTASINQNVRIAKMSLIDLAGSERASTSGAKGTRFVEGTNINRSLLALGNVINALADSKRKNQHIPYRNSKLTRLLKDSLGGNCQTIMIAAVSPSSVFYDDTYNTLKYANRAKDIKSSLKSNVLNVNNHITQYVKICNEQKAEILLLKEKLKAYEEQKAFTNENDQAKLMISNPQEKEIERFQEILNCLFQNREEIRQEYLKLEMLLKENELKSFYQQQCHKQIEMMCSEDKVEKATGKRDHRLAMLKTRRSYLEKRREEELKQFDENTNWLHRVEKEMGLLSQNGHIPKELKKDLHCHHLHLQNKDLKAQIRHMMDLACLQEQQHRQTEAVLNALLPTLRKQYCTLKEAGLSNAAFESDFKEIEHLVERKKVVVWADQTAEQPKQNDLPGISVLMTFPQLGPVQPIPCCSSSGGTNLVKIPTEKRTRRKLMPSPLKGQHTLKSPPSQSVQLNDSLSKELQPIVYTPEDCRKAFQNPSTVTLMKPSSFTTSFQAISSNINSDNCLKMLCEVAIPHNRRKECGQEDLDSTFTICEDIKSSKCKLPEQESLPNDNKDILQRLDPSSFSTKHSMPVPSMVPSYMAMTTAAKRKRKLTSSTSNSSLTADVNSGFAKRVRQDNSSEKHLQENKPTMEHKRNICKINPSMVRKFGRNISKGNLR

Below: 3 compounds and their reported IC50.
Cc1cc(NC(=O)c2ccc(NS(=O)(=O)C(C)(C)CO)cc2N2CCC(=C(F)F)CC2)nc(N2CCC(F)(F)CC2)n1 [Compound 60] : < 150 nM
Cc1cc(NC(=O)c2ccc(NS(=O)(=O)CCO)cc2N2CCC(=C(F)F)CC2)nc(N2CCC(F)(F)CC2)n1 [Compound 33] : < 50 nM
Cc1cc(NC(=O)c2ccc(NS(=O)(=O)CCO)cc2N2CCC(=C(F)F)CC2)cc(N2CCC(F)(F)CC2)c1 [Compound 56] : < 50 nM

Now for another entry.
Could you tell me which IC50 is on file for Cc1cc(NC(=O)c2ccc(NS(=O)(=O)CCO)cc2N2CCC(=C(F)F)CC2)nc(N2CCC(F)(F)CC2)c1 [Compound 48] ?
< 50 nM

###

- Tested on: OVCAR-3
- assay.name: Inhibition of proliferation of ovarian cancer cell line OVCAR-3 (CellTiter Glo)
- Format: cell-based
- protocol.conditions: Homo sapiens, OVCAR-3, 96 h, read-out: OVCAR-3 IC50
endpoint.label: IC50

Could you tell me which IC50 is on file for O=C(Nc1cccc(N2CC(F)(F)C2)n1)c1ccc(NS(=O)(=O)C2(CN3CCC3)CC2)cc1N1CCC2(CC1)CC2 [Compound 29] ?
< 500 nM
